ASSAYED_SYSTEM: MMP-2 (Homo sapiens)
Sequence (P08253 110-660): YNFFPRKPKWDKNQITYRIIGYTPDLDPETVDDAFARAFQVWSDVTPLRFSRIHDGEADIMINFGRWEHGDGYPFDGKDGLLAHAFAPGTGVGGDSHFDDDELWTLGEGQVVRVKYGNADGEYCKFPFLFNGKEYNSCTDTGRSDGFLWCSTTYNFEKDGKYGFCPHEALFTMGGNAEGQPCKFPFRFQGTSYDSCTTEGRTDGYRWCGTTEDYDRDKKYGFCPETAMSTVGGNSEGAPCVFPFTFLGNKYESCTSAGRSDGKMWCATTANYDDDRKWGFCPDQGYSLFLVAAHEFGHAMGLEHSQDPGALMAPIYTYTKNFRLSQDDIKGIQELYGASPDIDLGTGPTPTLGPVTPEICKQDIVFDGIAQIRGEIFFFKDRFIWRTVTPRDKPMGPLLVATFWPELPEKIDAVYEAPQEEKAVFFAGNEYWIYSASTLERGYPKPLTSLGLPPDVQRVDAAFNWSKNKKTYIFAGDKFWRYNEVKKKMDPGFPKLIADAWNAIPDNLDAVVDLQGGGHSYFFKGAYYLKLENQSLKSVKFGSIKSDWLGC
EXPERIMENT_DESCRIPTION: Secondary P218 Quenched fluorescence Assay for MMP-2 Inhibition
Format: biochemical
REPORTED_CONDITIONS: P218 substrate, 0.2 nM enzyme; x (n) = average of n determinations; read-out: MMP-2 Fluorogenic IC50
pIC50: −log10 of the molar value.

COMPOUND	ASSAYED_SYSTEM	pIC50
O=C(CC(CCCc1ccccc1)C(=O)O)c1ccc(-c2ccc(Cl)cc2)cc1 (stereo not shown) [Example 114]	MMP-2 (Homo sapiens)	7.60
O=C(C[C@H](CSc1ccccc1)C(=O)O)c1ccc(-c2ccc(Cl)cc2)cc1 [Example 197]	MMP-2 (Homo sapiens)	7.59
CCOC(=O)CCc1ccc(-c2ccc(CCC(CCCc3ccccc3)C(=O)O)cc2)cc1 (stereo not shown) [Example 44]	MMP-2 (Homo sapiens)	5.94
CC(C)(C)C(=O)SCC(CC(=O)c1ccc(-c2ccc(Cl)cc2)cc1)C(=O)O (stereo not shown) [Example 193]	MMP-2 (Homo sapiens)	7.40

====

ASSAYED_SYSTEM: MMP-3 (Homo sapiens)
Construct: Truncated Prostromelysin-257 was expressed in a soluble form in E.coli; made in house; host or cells: E. coli
Sequence (P08254 100-274 limits assumed): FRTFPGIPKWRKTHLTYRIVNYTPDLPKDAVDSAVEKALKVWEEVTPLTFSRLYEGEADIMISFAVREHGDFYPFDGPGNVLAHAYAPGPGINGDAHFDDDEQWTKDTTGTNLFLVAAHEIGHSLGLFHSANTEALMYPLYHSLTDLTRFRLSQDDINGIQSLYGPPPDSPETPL
EXPERIMENT_DESCRIPTION: Primary Thiopeptilide MMP-3 Inhibition Assay
Type: biochemical
REPORTED_CONDITIONS: pH 6.5; 13 nM stromelysin; x (n) = average of n determinations; read-out: MMP-3 Thiopep. IC50
pIC50: −log10 of the molar value.
Recorded pIC50 for the following compounds

COMPOUND	pIC50
O=C(CC(CSc1cccc(C(F)(F)F)c1)C(=O)O)c1ccc(-c2ccc(Cl)cc2)cc1 (centres unmarked)	5.70
O=C(O)[C@@H]1CCC[C@H]1C(=O)c1ccc(-c2ccc(Cl)cc2)cc1 (relative stereo)	6.46
O=C(CC(CSc1cccc2cccnc12)C(=O)O)c1ccc(-c2ccc(Cl)cc2)cc1 (centres unmarked)	6.71
N#Cc1ccc(-c2ccc(C(=O)CC(CCCc3ccccc3)C(=O)O)cc2)cc1 (centres unmarked)	6.51
C=CCC(CC(=O)c1ccc(-c2ccc(Cl)cc2)cc1)C(=O)O (centres unmarked)	6.12
CC(C)CC(CC(=O)c1ccc(-c2ccc(F)cc2)cc1)C(=O)O (centres unmarked)	5.70
O=C(CC(CCCc1ccccc1)P(=O)(O)O)c1ccc(-c2ccc(Br)cc2)cc1 (centres unmarked)	5.30
CCCCC(CC(=O)c1ccc(-c2ccc(Cl)cc2)cc1)C(=O)O (centres unmarked)	6.42
O=C(O)CCC(=O)c1ccc(-c2ccc(Cl)cc2)cc1 [Example 6, reference compound]	5.68
O=C(CC(CSc1ccc(Br)cc1)C(=O)O)c1ccc(-c2ccc(Cl)cc2)cc1 (centres unmarked)	6.30
COc1ccc(CCC(CC(=O)c2ccc(-c3ccc(Cl)cc3)cc2)C(=O)O)cc1 (centres unmarked)	6.12
O=C(CC(CCCCc1ccccc1)C(=O)O)c1ccc(-c2ccc(Cl)cc2)cc1 (centres unmarked)	6.80
COc1ccc(CCCC(CC(=O)c2ccc(-c3ccc(Cl)cc3)cc2)C(=O)O)cc1 (centres unmarked)	6.77
CCCCOc1ccc(-c2ccc(C(=O)CC(CCCc3ccccc3)C(=O)O)cc2)cc1 (centres unmarked)	6.95
CCCOc1ccc(-c2ccc(C(=O)CC(CCCc3ccccc3)C(=O)O)cc2)cc1 (centres unmarked)	6.82
CC(=O)Oc1ccc(-c2ccc(C(=O)CC(CCCc3ccccc3)C(=O)O)cc2)cc1 (centres unmarked)	6.82
O=C(CC(CSc1ccc2ccccc2c1)C(=O)O)c1ccc(-c2ccc(Cl)cc2)cc1 (centres unmarked)	6.14

====

ASSAYED_SYSTEM: MMP-3 (Homo sapiens)
Construct: Truncated Prostromelysin-257 was expressed in a soluble form in E.coli; made in house; host or cells: E. coli
EXPERIMENT_DESCRIPTION: Primary Thiopeptilide MMP-3 Inhibition Assay
Type: biochemical
REPORTED_CONDITIONS: pH 6.5; 13 nM stromelysin; x (n) = average of n determinations; read-out: MMP-3 Thiopep. IC50
pIC50: −log10 of the molar value.
MEASURED_QUANTITY: pIC50

COMPOUND	MEASURED_QUANTITY	NUMERIC_READOUT
CC(=O)SCC(CC(=O)O)C(=O)c1ccc(-c2ccc(Cl)cc2)cc1 (stereo not drawn) [Example 258, reference compound]	pIC50	6.09
CC(C)CC(CC(=O)c1ccc(-c2ccc(Br)cc2)cc1)C(=O)O (stereo not drawn)	pIC50	6.36
Cc1ccc(SCC(CC(=O)c2ccc(-c3ccc(Cl)cc3)cc2)C(=O)O)cc1 (stereo not drawn)	pIC50	6.36
COc1ccc(-c2ccc(C(=O)CC(CC(C)C)C(=O)O)cc2)cc1 (stereo not drawn)	pIC50	6.26
CC(C)CC(CC(=O)O)C(=O)c1ccc(-c2ccc(Cl)cc2)cc1 (single isomer, unassigned)	pIC50	6.42
O=C(C[C@H](CCCc1ccccc1)C(=O)O)c1ccc(-c2ccc(Br)cc2)cc1	pIC50	6.82
O=C(CC(CCCc1ccccc1)C(=O)O)c1ccc(-c2ccc(CO)cc2)cc1 (stereo not drawn)	pIC50	6.02
CC(C)c1ccccc1SCC(CC(=O)c1ccc(-c2ccc(Cl)cc2)cc1)C(=O)O (stereo not drawn)	pIC50	6.62
O=C(O)[C@@H]1CCCC[C@H]1C(=O)c1ccc(-c2ccc(Cl)cc2)cc1 (relative stereo)	pIC50	5.60
O=C(CC(CCCc1ccccc1)C(=O)O)c1ccc(-c2ccc(I)cc2)cc1 (stereo not drawn)	pIC50	6.92
CSCCCC(CC(=O)c1ccc(-c2ccc(Cl)cc2)cc1)C(=O)O (stereo not drawn)	pIC50	6.60
O=C(CC(CCCc1ccccc1)C(=O)O)c1ccc(-c2ccc(OCCCl)cc2)cc1 (stereo not drawn)	pIC50	7.12
O=C(C[C@H](C[S+]([O-])c1ccccc1)C(=O)O)c1ccc(-c2ccc(Cl)cc2)cc1 (stereo partly drawn) [Example 249]	pIC50	5.80
O=C(CC(CSCCCc1ccccc1)C(=O)O)c1ccc(-c2ccc(Cl)cc2)cc1 (stereo not drawn)	pIC50	6.74
CC(C)(C)c1ccc(SCC(CC(=O)c2ccc(-c3ccc(Cl)cc3)cc2)C(=O)O)cc1 (stereo not drawn)	pIC50	5.60
O=C(O)CC1(CC(=O)c2ccc(-c3ccc(Cl)cc3)cc2)CCCC1	pIC50	5.85
O=C(O)[C@@H]1CC[C@H]1C(=O)c1ccc(-c2ccc(Cl)cc2)cc1 (relative stereo)	pIC50	6.36
O=C(O)[C@H]1[C@@H](Sc2ccccc2)CC[C@@H]1C(=O)c1ccc(-c2ccc(Cl)cc2)cc1 (relative stereo)	pIC50	7.00
O=C(O)CC1(CC(=O)c2ccc(-c3ccc(Cl)cc3)cc2)CCCCC1	pIC50	5.77
CC(=O)SCC(CC(=O)c1ccc(-c2ccc(Cl)cc2)cc1)C(=O)O (stereo not drawn)	pIC50	6.19
CCOc1ccc(-c2ccc(C(=O)CC(CCCc3ccccc3)C(=O)O)cc2)cc1 (stereo not drawn)	pIC50	7.11
Cc1ccccc1S[C@@H]1CC[C@H](C(=O)c2ccc(-c3ccc(Cl)cc3)cc2)[C@H]1C(=O)O (relative stereo)	pIC50	7.26
Cc1cccc(SCC(CC(=O)c2ccc(-c3ccc(Cl)cc3)cc2)C(=O)O)c1 (stereo not drawn)	pIC50	6.55
CC(C)(C)OC(=O)NCc1ccc(-c2ccc(C(=O)CC(CCCc3ccccc3)C(=O)O)cc2)cc1 (stereo not drawn)	pIC50	6.12
O=C(CC(CCCc1ccccc1)C(=O)O)c1ccc(-c2ccc(Cl)cc2)cc1 (stereo not drawn)	pIC50	6.61
CCC(CC(=O)c1ccc(-c2ccc(Cl)cc2)cc1)C(=O)O (stereo not drawn)	pIC50	6.23
O=C(CC(CSc1ccc(Cl)c(Cl)c1)C(=O)O)c1ccc(-c2ccc(Cl)cc2)cc1 (stereo not drawn)	pIC50	6.11
O=C(CC(CCCc1ccc(Cl)cc1)C(=O)O)c1ccc(-c2ccc(Cl)cc2)cc1 (stereo not drawn)	pIC50	6.66
O=C(CC(CSc1ccccc1Br)C(=O)O)c1ccc(-c2ccc(Cl)cc2)cc1 (stereo not drawn)	pIC50	6.59
COc1ccc(SCC(CC(=O)c2ccc(-c3ccc(Cl)cc3)cc2)C(=O)O)cc1OC (stereo not drawn)	pIC50	5.89
O=C(CC(CCCc1ccccc1)C(=O)O)c1ccc(-c2ccc(F)c(Cl)c2)cc1 (stereo not drawn)	pIC50	5.64
COCCOCC(CC(=O)c1ccc(-c2ccc(Cl)cc2)cc1)C(=O)O (stereo not drawn)	pIC50	6.48
O=C(CC(COCc1ccccc1)C(=O)O)c1ccc(-c2ccc(Cl)cc2)cc1 (stereo not drawn)	pIC50	6.85

meta.source: patent US5789434A
